Tested on: Colo 205 human colonic adenocarcinoma cell line (doxorubicin-sensitive)
Test: MTT cytotoxic activity assay, Colo 205
Type: cell-based
Conditions: COLO 205, read-out: Cytotoxic activity, A—Colo 205 IC50
Experimental: Three cell lines have been used in this work: (i), the doxorubicin-sensitive Colo 205 (ATCC-CCL-222) human colonic adenocarcinoma cell line; (ii) the multidrug resistant Colo 320/MDR-LRP expressing P-gp (MDR1)-LRP (ATCC-CCL-220.1) human colonic adenocarcinoma cell line; and the MRC-5 human embryonal lung fibroblast cell line (ATCC CCL-171). […] The inhibition of the cell growth was determined according to the formula mentioned elsewhere. […]
pIC50: −log10 of the molar value.
Measured attribute: pIC50

COc1ccc2cc(-c3oc4ccccc4c(=O)c3CC(S(=O)(=O)C(F)(F)F)S(=O)(=O)C(F)(F)F)ccc2c1 | < 4.00
COc1cccc2c1C(=O)c1c(O)c3c(c(O)c1C2=O)C[C@@](O)(C(=O)CO)C[C@@H]3O[C@H]1C[C@H](N)[C@H](O)[C@H](C)O1 [DOXO, Doxorubicin, reference compound] | 5.81
COc1ccc(-c2sc3ccccc3c(=O)c2CC(S(=O)(=O)C(F)(F)F)S(=O)(=O)C(F)(F)F)cc1 | < 4.00
COc1ccc2cc(-c3sc4ccccc4c(=O)c3CC(S(=O)(=O)C(F)(F)F)S(=O)(=O)C(F)(F)F)ccc2c1 | < 4.00

query: Read the entry `COc1ccc(-c2oc3ccccc3c(=O)c2CC(S(=O)(=O)C(F)(F)F)S(=O)(=O)C(F)(F)F)cc1` and write its reported pIC50.
result: < 4.00

---

Recorded IC50 for the following compounds
system: Colo 320/MDR-LRP human colonic adenocarcinoma cell line (multidrug resistant); assay: MTT cytotoxic activity assay, Colo 320; format: cell-based; conditions: MTT, 1 × 10^4 cells/well, Colo 320, read-out: Cytotoxic activity, B—Colo 320 IC50

For orientation, consider the following solved cases.
COc1ccc(-c2[se]c3ccccc3c(=O)c2CC(S(=O)(=O)C(F)(F)F)S(=O)(=O)C(F)(F)F)cc1 | > 100 µM
COc1cccc2c1C(=O)c1c(O)c3c(c(O)c1C2=O)C[C@@](O)(C(=O)CO)C[C@@H]3O[C@H]1C[C@H](N)[C@H](O)[C@H](C)O1 [DOXO, Doxorubicin, reference compound] | 6.45 µM

query: Read the entry `COc1ccc2cc(-c3[se]c4ccccc4c(=O)c3CC(S(=O)(=O)C(F)(F)F)S(=O)(=O)C(F)(F)F)ccc2c1` and write its reported IC50.
result: > 100 µM

---

biological target: P-gp (ABCB1) efflux pump in MDR Colo 320 colon adenocarcinoma cells (Homo sapiens, UniProt P08183); assay: Rhodamine 123 accumulation assay (MDR efflux pump inhibition, flow cytometry); details: 2 μM compound; FAR of compound / FAR of verapamil (20 μM) x 100
Sequence (P08183 whole entry): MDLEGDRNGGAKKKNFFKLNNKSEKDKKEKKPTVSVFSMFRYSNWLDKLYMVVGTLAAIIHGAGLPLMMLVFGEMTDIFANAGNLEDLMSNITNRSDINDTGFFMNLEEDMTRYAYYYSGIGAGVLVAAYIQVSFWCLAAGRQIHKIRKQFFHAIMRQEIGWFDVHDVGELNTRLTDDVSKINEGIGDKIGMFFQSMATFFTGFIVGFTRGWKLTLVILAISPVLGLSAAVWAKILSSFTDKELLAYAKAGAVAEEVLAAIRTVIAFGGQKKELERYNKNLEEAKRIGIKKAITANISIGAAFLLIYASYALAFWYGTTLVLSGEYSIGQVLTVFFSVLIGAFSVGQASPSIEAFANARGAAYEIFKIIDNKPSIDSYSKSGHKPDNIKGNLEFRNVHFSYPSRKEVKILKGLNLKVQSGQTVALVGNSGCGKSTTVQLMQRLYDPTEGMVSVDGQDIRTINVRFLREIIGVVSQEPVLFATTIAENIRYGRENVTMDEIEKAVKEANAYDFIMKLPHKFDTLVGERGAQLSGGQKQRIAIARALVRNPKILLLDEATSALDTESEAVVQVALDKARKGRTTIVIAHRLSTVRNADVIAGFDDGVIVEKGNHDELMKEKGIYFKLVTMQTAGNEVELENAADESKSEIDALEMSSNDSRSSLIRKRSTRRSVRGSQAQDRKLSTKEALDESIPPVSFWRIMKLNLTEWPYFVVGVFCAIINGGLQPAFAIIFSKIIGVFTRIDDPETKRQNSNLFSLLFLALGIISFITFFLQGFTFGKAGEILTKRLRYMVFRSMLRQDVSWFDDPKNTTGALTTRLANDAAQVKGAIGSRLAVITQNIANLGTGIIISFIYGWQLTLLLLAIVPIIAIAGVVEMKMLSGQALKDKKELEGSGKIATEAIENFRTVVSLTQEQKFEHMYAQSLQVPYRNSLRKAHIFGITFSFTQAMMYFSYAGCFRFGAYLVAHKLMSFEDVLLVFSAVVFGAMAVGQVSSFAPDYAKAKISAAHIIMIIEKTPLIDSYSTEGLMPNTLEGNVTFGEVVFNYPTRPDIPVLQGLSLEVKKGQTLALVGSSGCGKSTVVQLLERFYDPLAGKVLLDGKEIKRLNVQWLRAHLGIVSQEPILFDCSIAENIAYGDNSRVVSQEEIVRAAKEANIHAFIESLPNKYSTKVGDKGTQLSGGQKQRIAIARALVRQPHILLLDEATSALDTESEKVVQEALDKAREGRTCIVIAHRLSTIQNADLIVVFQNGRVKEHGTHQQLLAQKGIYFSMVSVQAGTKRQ
Recorded FAR Quotient (%) for the following molecules
I only need the number, in %, no unit after it.

For orientation, consider the following solved cases.
COc1ccc(-c2[se]c3ccccc3c(=O)c2CC(S(=O)(=O)C(F)(F)F)S(=O)(=O)C(F)(F)F)cc1 [Compound 3] | 32.58
COc1ccc2cc(-c3[se]c4ccccc4c(=O)c3CC(S(=O)(=O)C(F)(F)F)S(=O)(=O)C(F)(F)F)ccc2c1 [Compound 6, bis(triflyl) selenoflavone] | 34.92

# next molecule below
query: Read the entry COc1ccc2cc(-c3sc4ccccc4c(=O)c3CC(S(=O)(=O)C(F)(F)F)S(=O)(=O)C(F)(F)F)ccc2c1 [Compound 5] and write its reported FAR Quotient (%).
result: 59.92
